# Tested on: TE-1 (Esophageal Squamous Cell Carcinoma)
# procedureDetails: Bliss excess, mean over the matrix (fraction); higher = more synergy
assayEndpoint: Bliss excess
Reply with just the number.

Record excerpt, results attached:
CC(=O)c1c(C)c2cnc(Nc3ccc(N4CCNCC4)cn3)nc2n(C2CCCC2)c1=O [Palbociclib] + CN(CC[C@H](CSC1=CC=CC=C1)NC2=C(C=C(C=C2)S(=O)(=O)NC(=O)C3=CC=C(C=C3)N4CCC(CC4)[C@H](C5=CC=CC=C5C6=CC=C(C=C6)Cl)O)S(=O)(=O)C(F)(F)F)CCO [AZD4320] (first compound max 10 µM, 7x7, partner max 1 µM)	-0.0322
CC(=O)Nc1cccc(-n2c(=O)n(C3CC3)c(=O)c3c(Nc4ccc(I)cc4F)n(C)c(=O)c(C)c32)c1 [Trametinib] + Cc1nc(-c2cn3c(n2)-c2ccc(-c4cnn(C(C)(C)C(N)=O)c4)cc2OCC3)n(C(C)C)n1 [Taselisib] (first compound max 1 µM, 7x7, partner max 10 µM)	0.127
COc1cccc(OCCCN)c1-c1cc(Nc2cnc(C#N)cn2)n[nH]1 [Prexasertib] + O=C(c1cc(Cc2n[nH]c(=O)c3ccccc23)ccc1F)N1CCN(C(=O)C2CC2)CC1 [Olaparib] (first compound max 1 µM, 7x7, partner max 10 µM)	-0.11
COc1cccc(OCCCN)c1-c1cc(Nc2cnc(C#N)cn2)n[nH]1 [Prexasertib] + CCc1c2c(nc3ccc(O)cc13)-c1cc3c(c(=O)n1C2)COC(=O)[C@]3(O)CC [SN-38] (first compound max 1 µM, 7x7, partner max 0.3 µM)	-0.0025
CCN(CCO)CCCOc1ccc2c(Nc3cc(CC(=O)Nc4cccc(F)c4)[nH]n3)ncnc2c1 [AZD2811] + O=C(c1cc(Cc2n[nH]c(=O)c3ccccc23)ccc1F)N1CCN(C(=O)C2CC2)CC1 [Olaparib] (first compound max 1 µM, 7x7, partner max 10 µM)	-0.031

Enquiry: Please tell me: Bliss excess of COc1cccc(OCCCN)c1-c1cc(Nc2cnc(C#N)cn2)n[nH]1 [Prexasertib] + CN(C)CCCOc1ccc(-c2ccc3ncc4c(c3c2)n(C2CCOCC2)c(=O)n4C)cn1 [AZD0156] (first compound max 1 µM, 7x7, partner max 1 µM) , system TE-1 (Esophageal Squamous Cell Carcinoma)?
Return: -0.0356

====

Reported Bliss excess values for a set of compounds
# System: EW-24 (Ewing's Sarcoma)
# procedureDetails: Bliss excess, mean over the matrix (fraction); higher = more synergy
Response field accepts a number only; no unit should be typed.

O=C(c1cc(Cc2n[nH]c(=O)c3ccccc23)ccc1F)N1CCN(C(=O)C2CC2)CC1 [Olaparib] + CN(CC[C@H](CSC1=CC=CC=C1)NC2=C(C=C(C=C2)S(=O)(=O)NC(=O)C3=CC=C(C=C3)N4CCC(CC4)[C@H](C5=CC=CC=C5C6=CC=C(C=C6)Cl)O)S(=O)(=O)C(F)(F)F)CCO [AZD4320] (first compound max 10 µM, 7x7, partner max 1 µM)	0.0097

Enquiry: Give the measured Bliss excess of Cc1nc(Nc2ncc(C(=O)Nc3c(C)cccc3Cl)s2)cc(N2CCN(CCO)CC2)n1 [Dasatinib] + CC(=O)Nc1cccc(-n2c(=O)n(C3CC3)c(=O)c3c(Nc4ccc(I)cc4F)n(C)c(=O)c(C)c32)c1 [Trametinib] (first compound max 2 µM, 7x7, partner max 1 µM) .
Return: -0.0569

Enquiry: Entry Cn1cnc2c(F)c(Nc3ccc(Br)cc3Cl)c(C(=O)NOCCO)cc21 [Selumetinib] + C=CCn1c(=O)c2cnc(Nc3ccc(N4CCN(C)CC4)cc3)nc2n1-c1cccc(C(C)(C)O)n1 [AZD1775] (first compound max 10 µM, partner max 1 µM) has what Bliss excess?
Return: -0.0025

====

# System: TGW (Neuroblastoma)
# procedureDetails: Bliss excess, mean over the matrix (fraction); higher = more synergy
Below, each entry is listed alongside its reported Bliss excess.
In your answer, state the number alone without any accompanying words.

Answered cases to consult:
COc1cccc(OCCCN)c1-c1cc(Nc2cnc(C#N)cn2)n[nH]1 [Prexasertib] + C[C@@H]1COCCN1C2=NC(=NC(=C2)C3(CC3)[S@](=N)(=O)C)C4=C5C=CNC5=NC=C4 [AZD6738] (first compound max 1 µM, 7x7, partner max 10 µM)	-0.019
COc1nnc2ccc(N3CCC(c4ccc(OCCN5CCN(C)C(=O)[C@H]5C)cc4)CC3)nn12 [AZD5153] + C[C@@H]1COCCN1C2=NC(=NC(=C2)C3(CC3)[S@](=N)(=O)C)C4=C5C=CNC5=NC=C4 [AZD6738] (first compound max 1 µM, 7x7, partner max 10 µM)	-0.0601
Cc1c2c(nn1C)CSCc1cc(n(C)n1)CSc1cc(c3ccccc3c1)OCCCc1c(C(=O)O)n(C)c3c-2c(Cl)ccc13 [AZD5991] + Cc1cc2ncnn2cc1Nc1ncc2c(n1)n(C1CCOCC1)c(=O)n2C [AZD7648] (first compound max 1 µM, 7x7, partner max 10 µM)	-0.03

Enquiry: Any idea what Bliss excess was measured for N#Cc1cnc(Nc2cc(NC[C@H]3CNCCO3)c(C(F)(F)F)cn2)cn1 [SRA737] + O=c1[nH]cc(F)c(=O)[nH]1 [5-Fluorouracil] (first compound max 10 µM, 7x7, partner max 20 µM) ?
Return: -0.0389

====

# Tested on: EW-24 (Ewing's Sarcoma)
# procedureDetails: combination Emax (second highest fraction inhibited in the dose matrix, 72 h); higher = more inhibition; extreme values may be limits of the assay
Below, each entry is listed with its recorded combination Emax.
No unit in the answer, please; the number alone is enough.

Field: example entries. Status: answers known.
COc1nnc2ccc(N3CCC(c4ccc(OCCN5CCN(C)C(=O)[C@H]5C)cc4)CC3)nn12 [AZD5153] + C[C@@H]1COCCN1C2=NC(=NC(=C2)C3(CC3)[S@](=N)(=O)C)C4=C5C=CNC5=NC=C4 [AZD6738] (first compound max 1 µM, 7x7, partner max 10 µM)	0.834
C[C@@H]1COCCN1c1cc(C2([S@](C)(=N)=O)CC2)nc(-c2ccnc3[nH]ccc23)n1 [AZD6738] + Nc1ccn([C@@H]2O[C@H](CO)[C@@H](O)C2(F)F)c(=O)n1 [Gemcitabine] (first compound max 10 µM, 7x7, partner max 0.3 µM)	0.8
Cc1c2c(nn1C)CSCc1cc(n(C)n1)CSc1cc(c3ccccc3c1)OCCCc1c(C(=O)O)n(C)c3c-2c(Cl)ccc13 [AZD5991] + CCN(CCO)CCCOc1ccc2c(Nc3cc(CC(=O)Nc4cccc(F)c4)[nH]n3)ncnc2c1 [AZD2811] (first compound max 1 µM, 7x7, partner max 1 µM)	0.383
CC1(C)CCC(CN2CCN(c3ccc(C(=O)NS(=O)(=O)c4ccc(NCC5CCOCC5)c([N+](=O)[O-])c4)c(Oc4cnc5[nH]ccc5c4)c3)CC2)=C(c2ccc(Cl)cc2)C1 [Venetoclax] + C=CCn1c(=O)c2cnc(Nc3ccc(N4CCN(C)CC4)cc3)nc2n1-c1cccc(C(C)(C)O)n1 [AZD1775] (first compound max 1 µM, partner max 1 µM)	0.34
CC(=O)Nc1cccc(-n2c(=O)n(C3CC3)c(=O)c3c(Nc4ccc(I)cc4F)n(C)c(=O)c(C)c32)c1 [Trametinib] + Cc1nc(-c2cn3c(n2)-c2ccc(-c4cnn(C(C)(C)C(N)=O)c4)cc2OCC3)n(C(C)C)n1 [Taselisib] (first compound max 1 µM, 7x7, partner max 10 µM)	0.6
CN(CCO)CC[C@H](CSc1ccccc1)Nc1ccc(S(=O)(=O)NC(=O)c2ccc(N3CCC([C@@H](O)c4ccccc4-c4ccc(Cl)cc4)CC3)cc2)cc1S(=O)(=O)C(F)(F)F [AZD4320] + Nc1ccn([C@@H]2O[C@H](CO)[C@@H](O)C2(F)F)c(=O)n1 [Gemcitabine] (first compound max 1 µM, 7x7, partner max 0.3 µM)	0.98

Next up:
Enquiry: What value of combination Emax on EW-24 (Ewing's Sarcoma) does Cc1nc(-c2cn3c(n2)-c2ccc(-c4cnn(C(C)(C)C(N)=O)c4)cc2OCC3)n(C(C)C)n1 [Taselisib] + O=C(Nc1ccc2[nH]nc(-c3ccncc3)c2c1)[C@@H]1CCN(CC(=O)N2CCN(c3ccc(-c4ncccn4)cc3)CC2)C1 [SCH772984] (first compound max 10 µM, 7x7, partner max 5 µM) have?
Return: 0.602

====

# Test system: NB69 (Neuroblastoma)
# procedureDetails: combination Emax (second highest fraction inhibited in the dose matrix, 72 h); higher = more inhibition; extreme values may be limits of the assay
assayEndpoint: combination Emax
The response must contain the number and no unit.

Guide cases for combination Emax, answers given:
CN(CCO)CC[C@H](CSc1ccccc1)Nc1ccc(S(=O)(=O)NC(=O)c2ccc(N3CCC([C@@H](O)c4ccccc4-c4ccc(Cl)cc4)CC3)cc2)cc1S(=O)(=O)C(F)(F)F [AZD4320] + Nc1ccn([C@@H]2O[C@H](CO)[C@@H](O)C2(F)F)c(=O)n1 [Gemcitabine] (first compound max 1 µM, 7x7, partner max 0.3 µM)	0.997
Cc1c2c(nn1C)CSCc1cc(n(C)n1)CSc1cc(c3ccccc3c1)OCCCc1c(C(=O)O)n(C)c3c-2c(Cl)ccc13 [AZD5991] + C1CN(CCC1(C(=O)N[C@@H](CCO)C2=CC=C(C=C2)Cl)N)C3=NC=NC4=C3C=CN4 [Capivasertib] (first compound max 1 µM, 7x7, partner max 3 µM)	0.794
CC1(C)CCC(CN2CCN(c3ccc(C(=O)NS(=O)(=O)c4ccc(NCC5CCOCC5)c([N+](=O)[O-])c4)c(Oc4cnc5[nH]ccc5c4)c3)CC2)=C(c2ccc(Cl)cc2)C1 [Venetoclax] + C[C@@H](Nc1cc(F)cc(F)c1)c1cc(C(=O)N(C)C)cc2c(=O)cc(N3CCOCC3)oc12 [AZD8186] (first compound max 1 µM, 7x7, partner max 3 µM)	0.998
COc1nnc2ccc(N3CCC(c4ccc(OCCN5CCN(C)C(=O)[C@H]5C)cc4)CC3)nn12 [AZD5153] + CCN(CCO)CCCOc1ccc2c(Nc3cc(CC(=O)Nc4cccc(F)c4)[nH]n3)ncnc2c1 [AZD2811] (first compound max 1 µM, 7x7, partner max 1 µM)	0.952
Cc1c2c(nn1C)CSCc1cc(n(C)n1)CSc1cc(c3ccccc3c1)OCCCc1c(C(=O)O)n(C)c3c-2c(Cl)ccc13 [AZD5991] + CCN(CCO)CCCOc1ccc2c(Nc3cc(CC(=O)Nc4cccc(F)c4)[nH]n3)ncnc2c1 [AZD2811] (first compound max 1 µM, 7x7, partner max 1 µM)	0.878
Cc1c2c(nn1C)CSCc1cc(n(C)n1)CSc1cc(c3ccccc3c1)OCCCc1c(C(=O)O)n(C)c3c-2c(Cl)ccc13 [AZD5991] + CN(C)CCCOc1ccc(-c2ccc3ncc4c(c3c2)n(C2CCOCC2)c(=O)n4C)cn1 [AZD0156] (first compound max 1 µM, 7x7, partner max 1 µM)	0.666

Enquiry: Please tell me: combination Emax of Cc1cc2ncnn2cc1Nc1ncc2c(n1)n(C1CCOCC1)c(=O)n2C [AZD7648] + CCN(CCO)CCCOc1ccc2c(Nc3cc(CC(=O)Nc4cccc(F)c4)[nH]n3)ncnc2c1 [AZD2811] (first compound max 10 µM, 7x7, partner max 1 µM) , system NB69 (Neuroblastoma)?
Return: 0.655

Enquiry: I'm curious: which combination Emax was measured for Cc1c2c(nn1C)CSCc1cc(n(C)n1)CSc1cc(c3ccccc3c1)OCCCc1c(C(=O)O)n(C)c3c-2c(Cl)ccc13 [AZD5991] + CS(=O)(=O)CCNCc1ccc(-c2ccc3ncnc(Nc4ccc(OCc5cccc(F)c5)c(Cl)c4)c3c2)o1 [Lapatinib] (first compound max 1 µM, 7x7, partner max 10 µM) tested on NB69 (Neuroblastoma)?
Return: 0.902

Enquiry: Query the reported combination Emax for NB69 (Neuroblastoma); item: NC1(C(=O)N[C@@H](CCO)c2ccc(Cl)cc2)CCN(c2ncnc3[nH]ccc23)CC1 [Capivasertib] + Cn1cnc2c(F)c(Nc3ccc(Br)cc3Cl)c(C(=O)NOCCO)cc21 [Selumetinib] (first compound max 10 µM, 7x7, partner max 10 µM)
Return: 0.903

Enquiry: What reported combination Emax corresponds to COc1cc2ncnc(Nc3ccc(F)c(Cl)c3)c2cc1OCCCN1CCOCC1 [Gefitinib] + CC(C)n1c(=O)n(C)c2cnc3cc(F)c(-c4ccc(OCCCN5CCCCC5)nc4)cc3c21 [AZD1390] (first compound max 10 µM, 7x7, partner max 0.3 µM) on NB69 (Neuroblastoma)?
Return: 0.369

Enquiry: Test system NB69 (Neuroblastoma); read-out combination Emax; what value for Cc1cc2ncnn2cc1Nc1ncc2c(n1)n(C1CCOCC1)c(=O)n2C [AZD7648] + C[C@@H]1COCCN1C2=NC(=NC(=C2)C3(CC3)[S@](=N)(=O)C)C4=C5C=CNC5=NC=C4 [AZD6738] (first compound max 10 µM, 7x7, partner max 10 µM) ?
Return: 0.865

Enquiry: State its combination Emax on NB69 (Neuroblastoma): COc1nnc2ccc(N3CCC(c4ccc(OCCN5CCN(C)C(=O)[C@H]5C)cc4)CC3)nn12 [AZD5153] + CC1(C)CCC(CN2CCN(c3ccc(C(=O)NS(=O)(=O)c4ccc(NCC5CCOCC5)c([N+](=O)[O-])c4)c(Oc4cnc5[nH]ccc5c4)c3)CC2)=C(c2ccc(Cl)cc2)C1 [Venetoclax] (first compound max 1 µM, 7x7, partner max 1 µM)
Return: 0.952

Enquiry: Request: combination Emax, test system NB69 (Neuroblastoma), entry C=CCn1c(=O)c2cnc(Nc3ccc(N4CCN(C)CC4)cc3)nc2n1-c1cccc(C(C)(C)O)n1 [AZD1775] + O=C(c1cc(Cc2n[nH]c(=O)c3ccccc23)ccc1F)N1CCN(C(=O)C2CC2)CC1 [Olaparib] (first compound max 1 µM, partner max 10 µM)
Return: 0.893
